Give measured GI50 for each item. Keep answers brief.
- Test system: UO-31 renal
- assay-name: NCI tumour cell line growth inhibition, 48 h

Using known records, supply GI50 for Cc1ccc(C2CC(c3cccc(Nc4ccncc4)c3)=NN2c2cc(Cl)cc(Cl)c2)cc1 (centres undefined) 1310 nM

For the molecule COC(=O)c1ccc2[nH]c(O)c(C(=Nc3ccc(N(C)C(=O)CN4CCN(C)CC4)cc3)c3cccc(OC)c3)c2c1 , give its reported GI50. 1540 nM

Please report the measured GI50 for N[C@@H]1CCCC[C@@H]1N.O=P([O-])([O-])CNCP(=O)([O-])[O-].[Pt+2] > 100000 nM

Please report GI50 for the following molecule: CCn1cc(C2NC(=O)c3ccccc3N2)c2cccc(C)c21 (centres undefined) 631 nM

Given the molecule O=C(c1ccccc1)N(C(=S)NCCc1ccc(Cl)cc1)c1ccc(Cl)cc1 , write its reported GI50. 2610 nM

Write down GI50 measured for item COc1cc2c(c(OC)c1OC)-c1ccc(SC)c(=O)cc1C(CC(=O)Oc1ccc(F)cc1)C2 (centres undefined) 2490 nM

Give the measured GI50 for Cc1ccc(Cl)cc1Nc1nc(C(F)(F)F)ccc1C(N)=O 5370 nM

Determine from records and report GI50 for Cn1ccnc1C(=O)/C=C/c1ccc(C(=O)Nc2ccc(F)cc2)cc1 814 nM

Fill in reported GI50 for this entry: COc1ccc(C(=O)N2N=C(c3ccc(Br)cc3)CC2c2cn(-c3ccccc3)nc2-c2ccccc2)cc1 (centres undefined) 42600 nM

###

- Test system: RPMI-8226 leukemia
- assay-name: NCI tumour cell line growth inhibition, 48 h
Field: TGI. Provide a value for each of the molecules that follow.
Give the quantity in µM, number only.

Output TGI of Cc1ccc(SC2=C(N(C)C)C(=O)c3ccccc3C2=O)cc1 11.7

Determine from records and report TGI for Oc1c(CNCCCN2CCCC2)cc(Cl)c2cccnc12 16.3

Specify reported TGI for the molecule shown: COC1CC(OC2C(C)OC(OC3C(C)OC(OC4CCC5(C)C(=CCC6(O)C5CC(OC(=O)c5ccc(O)cc5)C5(C)C(O)(C(C)=O)CCC65O)C4)CC3OC)CC2OC)OC(C)C1O (centres undefined) (tested in a mixture with another compound) 95.8

Specify measured TGI for C=C[C@]1(C)CC(O)C2C(=C)C(=O)OC2[C@H]1C(=C)C=O (some centres undefined) . 5.94

###

- System: HOP-92 NSCLC
- assay-name: NCI tumour cell line growth inhibition, 48 h
readout-name: GI50

State, in one line, measured GI50 of CC[C@H](C)[C@H](NC(=O)C12CC(NC)(C1)C2)C(=O)N(C)[C@H](C[C@@H](OC(C)=O)c1nc(C(=O)N[C@@H](Cc2ccccc2)C[C@H](C)C(=O)OC)cs1)C(C)C 7170 nM

Quote GI50 reported for COC(=O)c1ccc2[nH]c(O)c(C(=Nc3ccc(N(C)C(=O)CN4CCN(C)CC4)cc3)c3cccc(OC)c3)c2c1 please. 2980 nM

Please give measured GI50 of the following entry: COc1cc2c(c(OC)c1OC)-c1ccc(SC)c(=O)cc1C(CC(=O)Oc1ccc(F)cc1)C2 (stereo not drawn) 1910 nM

Give the measured GI50 for Fc1cc(-c2csc3n[nH]c(=S)n23)c(Cl)cc1Cl 21100 nM

Return the recorded GI50 value; entry: N[C@@H]1CCCC[C@@H]1N.O=P([O-])([O-])CNCP(=O)([O-])[O-].[Pt+2] > 100000 nM

Give the reported value of GI50 for this record: C=C1C(=O)O[C@H]2[C@H]1CC/C(COC(=O)NCc1ccc(Cn3c(=O)sn(CCCC)c3=O)cc1)=C\CC[C@@]1(C)O[C@@H]21 1290 nM

Tell me GI50 reported for CCOC(=O)c1cnc2c(C)cc(C)cc2c1NCCCN(C)C 2080 nM

Quickly give me recorded GI50 for Cn1ccnc1C(=O)/C=C/c1ccc(C(=O)Nc2ccc(F)cc2)cc1 1310 nM

###

Field: TGI. Provide a value for each of the compounds that follow.
- Test system: SNB-75 CNS
- assay-name: NCI tumour cell line growth inhibition, 48 h
Give the number; µM is assumed, so skip it.

Indicate its recorded TGI; the compound in question is CN1CCN(CCCOc2ccc3ncnc(Nc4ccc(OCc5cccc(F)c5)c(Cl)c4)c3c2)CC1 2.71

Please indicate TGI recorded for Cn1ccnc1C(=O)/C=C/c1ccc(C(=O)Nc2ccc(F)cc2)cc1 16.8

Assign TGI to the following record: O=C(c1ccccc1)N(C(=S)NCCc1ccc(Cl)cc1)c1ccc(Cl)cc1 27.9

Retrieve TGI measured for COc1ccc(SS(=O)(=O)c2ccc(OC)cc2)cc1 and print it. 45.5

Consider the compound Cn1c(CCC2(C)Cc3ccccc3C(=O)O2)cc2ccccc2c1=O (stereo not given) and give its recorded TGI. 58.3

Output TGI of Cc1cc2nc3[nH]c4c(Cl)cc(Cl)cc4c3nc2cc1C 42

Output TGI of COC(=O)c1ccc2[nH]c(O)c(C(=Nc3ccc(N(C)C(=O)CN4CCN(C)CC4)cc3)c3cccc(OC)c3)c2c1 1.78

Given Cc1ccc(C2CC(c3cccc(Nc4ccncc4)c3)=NN2c2cc(Cl)cc(Cl)c2)cc1 (stereo not given) , respond with its TGI. 2.62

###

Can you tell me TGI for the items I'm about to list?
- Test system: NCI-H460 lung
- assay-name: NCI tumour cell line growth inhibition, 48 h
Number in µM, nothing else.

Give TGI for COc1cccc(CNCCN2C(=O)c3ccc4c5c(ccc(c35)C2=O)C(=O)N(CCNCc2cccc(OC)c2)C4=O)c1 4.33

Consider the molecule N#C/C(=C/c1cccc2ccccc12)C(=O)c1ccccc1 and give its recorded TGI. 78.2

Report TGI for CCOc1cc2ncc(C#N)c(Nc3ccc(F)c(Cl)c3)c2cc1NC(=O)CC1CCSS1 (stereo not given) 1.41

Give recorded TGI. COCOCCCCCO[Si](C)(C)C(C)(C)C 43.4

###

- System: SK-MEL-28 melanoma
- assay-name: NCI tumour cell line growth inhibition, 48 h
Where a SMILES comes first, the peptide text is derived from it. [ ]: non-standard residue; d: D form. The star is where a group is joined. Chg = N[CH](C(=O)O)C1CCCCC1; Cbz = O=C(OCc1ccccc1)*; OBn = c1ccc(CO*)cc1
readout-name: TGI

Using known records, supply TGI for O=C1Nc2ccccc2/C1=C/C(=N/c1nnc(-c2ccc(Cl)cc2)s1)c1ccccc1 5.59 µM

Give reported TGI value for CCOc1cc2ncc(C#N)c(Nc3ccc(F)c(Cl)c3)c2cc1NC(=O)CC1CCSS1 (stereo not drawn) 1.53 µM

Provide one value: measured TGI of C[C@H](Nc1ccc2c(c1)OCCn1cc(N3C(=O)OC[C@H]3C(F)F)nc1-2)C(N)=O > 100 µM

Answer with reported TGI of CCOC(=O)c1cnc2c(C)cc(C)cc2c1NCCCN(C)C 26.1 µM

Given the molecule COC(=O)CCC1(C)C2CCC1/C(=N/O)C2 (stereo not drawn) , write its reported TGI. > 100 µM

Identify TGI associated with the molecule CCOc1c(OC)cc(C2c3cc4c(c(OCC)c3CC3COC(=O)C32)OCO4)cc1OC (stereo not drawn) > 100 µM

Provide TGI value for the following molecule: COP(=O)(OC)/C(=C\C1=CN(C(c2ccccc2)(c2ccccc2)c2ccccc2)CN1)NC=O 32.5 µM

# return recorded TGI for entry COc1ccc(-c2ccccc2)c(N/N=C2\CCCNC2=O)c1 > 100 µM

# return recorded TGI for entry CCCC(=O)OCC(COC(=O)CCC)OC(=O)CCC > 100 µM

Provide measured TGI value, entry: O=S(=O)(Nc1cccc(Cl)c1)c1ccc(-c2cnc(C3CC3)o2)cc1 23 µM

Report TGI for Cc1[nH]n(-c2ncc(C#N)c(=O)[nH]2)c(=O)c1CCO > 100 µM

Output measured TGI for this item: COc1ccccc1C=NC12CC3CC(CC(C3)C1)C2 > 100 µM

Hello, please tell me recorded TGI for this one: CC(C)Cn1cnc2c(Sc3c([N+](=O)[O-])ncn3C)nc(N)nc21 > 100 µM

Entry CC(=O)O[C@@H]1C(C2CCCCC2)C=[N+]([O-])O[C@@H]1OC1CCCC1(c1ccccc1)c1ccccc1 (stereo partly drawn) needs its TGI filled in; supply it. 5.84 µM

For CCN(C(C)=N)c1ccccc1 , write its TGI. > 100 µM

Read off the recorded TGI for Cn1c(CCC2(C)Cc3ccccc3C(=O)O2)cc2ccccc2c1=O (stereo not drawn) 76.6 µM

# return recorded TGI for entry CCOC(=O)C(C(C)=O)C1CC=CC1 (stereo not drawn) > 100 µM

Determine from records and report TGI for Cc1ccc2c(=O)cc(-c3ccc(Cl)cc3)[nH]c2n1 > 100 µM

Report TGI for CN(N=O)C(=O)NNC(=O)N(C)N=O > 100 µM

Return TGI for the following molecule: COC(=O)c1ccc2cc(O)c(O)cc2c1 > 100 µM

Return value of TGI for input CC(=O)c1c(-c2ccc(Cl)cc2)c(C#N)c(=S)n(C2OC(CO)C(O)C(O)C2O)c1-c1ccccc1 (stereo not drawn) , no commentary. > 100 µM

Please list TGI recorded for the molecule Cc1ncc(CSc2ccccc2N)c(CO)c1O > 100 µM

Quickly give me recorded TGI for COc1cc([C@@H]2c3cc4c(cc3[C@@H](NC(=O)c3cccc(C#N)c3)C3COC(=O)[C@@H]32)OCO4)cc(OC)c1O (stereo partly drawn) > 100 µM

Give reported TGI value for COc1cc2c(cc1O)[C@@]1(Cc3ccc(OC)c(OC)c3)CCC(=O)N1CC2 > 100 µM

Name the recorded TGI of the molecule listed here: COCC1OC(OC2OCC3OC4(OCC(O)(C(C)OC)C5OCOC54)OC3C2OC)C(OC)C(O)C1OC1OC(C)C(OC)C(OC2OC(C)C3OC4(CC(O)C(OC5CC(OC6CC(C)([N+](=O)[O-])C(OC)C(C)O6)C(OC(=O)c6c(C)c(Cl)c(O)c(Cl)c6OC)C(C)O5)C(C)O4)OC3(C)C2O)C1O (stereo not drawn) > 100 µM

Consider the molecule COc1cc(/C=C\c2cc(/C=C\c3ccc(O)c(OC)c3)n(C(=O)COc3ccc(Cl)cc3Cl)n2)ccc1O . State its measured TGI. 7.32 µM

Look up and report measured TGI for this entry: COC(=O)c1ccc2[nH]c(O)c(C(=Nc3ccc(N(C)C(=O)CN4CCN(C)CC4)cc3)c3cccc(OC)c3)c2c1 3.77 µM

Please give measured TGI of the following entry: CC(=O)N(C(C)=O)c1c(N)n(C)c(=O)[nH]c1=O > 100 µM

Look up and report measured TGI for this entry: c1ccc(-c2n(Cc3ccc4ccccc4n3)cc[n+]2Cc2ccc3ccccc3n2)cc1 12.9 µM

Using known records, supply TGI for C=C1C(=O)O[C@H]2[C@H]1CC/C(COC(=O)NCc1ccc(Cn3c(=O)sn(CCCC)c3=O)cc1)=C\CC[C@@]1(C)O[C@@H]21 3.36 µM

State its TGI: COC(=O)C(NC(=O)C(CC(=O)OCc1ccccc1)NC(=O)OCc1ccccc1)C1CCCCC1 (stereo not drawn) (Cbz-Asp(OBn)-[Chg]-OMe; configuration not given here) > 100 µM

Give me measured TGI, please, for this molecule: Cc1ccc(Oc2ccc(C(=O)c3cccc(C(=O)c4ccc(Oc5ccc(C)cc5)cc4)n3)cc2)cc1 > 100 µM

Entry C/C(=N/NC(=O)c1ccccc1O)c1ccc(/C(C)=N\NC(=O)c2ccccc2O)c2nc3cc(C)c(C)cc3nc12 needs its TGI filled in; supply it. > 100 µM

State, in one line, measured TGI of COCOCCCCCO[Si](C)(C)C(C)(C)C > 100 µM

Please supply the value of reported TGI for the item COc1ccc(-c2nc(S(=O)(=O)c3ccccc3)c(S(=O)CC(=O)N3CCC(C)CC3)o2)cc1 (stereo not drawn) 4.36 µM

Recall and state the measured TGI for CCOC(=O)N1CCC2(CC1)CC(=O)N(Nc1ccccc1)C2=O . > 100 µM

Supply measured TGI of Cc1ccc(SC2=C(N(C)C)C(=O)c3ccccc3C2=O)cc1 in your reply. 25.8 µM

Assign TGI to the following record: Cc1cccc(-n2c(C)nc3ccc(NC(=S)Nc4ccccc4)cc3c2=O)c1 > 100 µM
